The reported numbers originate from patent US11179412B2.

- Test system: STING activation (IFNβ release) in iBMDMs
- procedureSummary: IFNβ release ELISA after STING ligand (or LPS) stimulation, iBMDMs
- Type: cell-based, mouse
- statedConditions: iBMDMs; 3′3′-cGAMP 10 μg/ml, 16 hours; compound 10 μM
parameter: fold increase in IFN-β release (fold)
Just the number in fold, nothing appended.

Req: Look up and state reported fold increase in IFN-β release for "S=C=Nc1cccc(NC(=S)NCCCCNC(=S)Nc2cccc(N=C=S)c2)c1"
Resp: 1.31

Req: Look up and state reported fold increase in IFN-β release for "O=S(=O)(c1ccccc1)c1cnc2c(N3CCNCC3)cccc2c1"
Resp: 0.65

Req: Look up and state reported fold increase in IFN-β release for "COc1ccc2c(c1)c(C1=C(c3c[nH]c4ccccc34)C(=O)NC1=O)cn2CCCN(C)C"
Resp: 0.26

Req: Look up and state reported fold increase in IFN-β release for "N#C[C@@H]1CCCN1C(=O)CNC12CC3CC(CC(O)(C3)C1)C2"
Resp: 1.04

Req: Look up and state reported fold increase in IFN-β release for "COc1ccc(COc2ccc(Cc3cnc(N)nc3N)cc2OC)cc1"
Resp: 1.21

###

- Test system: STING activation (IFNβ release) in iBMDMs
- procedureSummary: IFNβ release ELISA after STING ligand (or LPS) stimulation, iBMDMs
- Format: cell-based, mouse
- statedConditions: iBMDMs; 3′3′-cGAMP 10 μg/ml, 16 hours; compound 10 μM
Structures can show the parent of a compound that is named as a salt.
parameter: fold increase in IFN-β release

Req: Look up and state reported fold increase in IFN-β release for "O=C(c1ccc(Nc2nccc(-c3cc4ccccc4s3)n2)cc1)N1CCC(N2CCCC2)CC1"
Resp: 1.16 fold

Req: Look up and state reported fold increase in IFN-β release for "COc1cc(N2CCC(N)CC2)ccc1Nc1ncc(Cl)c(-c2c[nH]c3ccccc23)n1"
Resp: 0.05 fold

Req: Look up and state reported fold increase in IFN-β release for "CC(C)c1onc(-c2c(Cl)cccc2Cl)c1COc1ccc(/C=C/c2cccc(C(=O)O)c2)c(Cl)c1"
Resp: 1.26 fold

Req: Look up and state reported fold increase in IFN-β release for C[C@]12C=CC(=O)N[C@@H]1CC[C@@H]1[C@@H]2CC[C@]2(C)[C@@H](C(=O)Nc3cc(C(F)(F)F)ccc3C(F)(F)F)CC[C@@H]12 [Dutasteride]
Resp: 0.51 fold

Req: Look up and state reported fold increase in IFN-β release for COCCCC/C(=N\OCCN)c1ccc(C(F)(F)F)cc1 [Fluvoxamine maleate]
Resp: 1.80 fold

Req: Look up and state reported fold increase in IFN-β release for CN[C@H]1CC[C@@H](c2ccc(Cl)c(Cl)c2)c2ccccc21 [Sertraline HCl]
Resp: 0.22 fold

Req: Look up and state reported fold increase in IFN-β release for CC12CC3CC(C)(C1)CC(N)(C3)C2 [Memantine HCl]
Resp: 2.60 fold

Req: Look up and state reported fold increase in IFN-β release for "CCCCCCCCCCCC1=C(O)C(=O)C=C(O)C1=O"
Resp: 0.17 fold

Req: Look up and state reported fold increase in IFN-β release for CCOC(=O)C1=C(COCCN)NC(C)=C(C(=O)OC)C1c1ccccc1Cl (stereo not shown)
Resp: 1.46 fold

Req: Look up and state reported fold increase in IFN-β release for "CC1(C)CCC(CN2CCN(c3ccc(C(=O)NS(=O)(=O)c4ccc(NCC5CCOCC5)c([N+](=O)[O-])c4)c(Oc4cnc5[nH]ccc5c4)c3)CC2)=C(c2ccc(Cl)cc2)C1"
Resp: 1.78 fold

Req: Look up and state reported fold increase in IFN-β release for "NC1(Cc2ccc(Cl)cc2)CCN(c2ncnc3[nH]ccc23)CC1"
Resp: 1.46 fold

Req: Look up and state reported fold increase in IFN-β release for Nc1ccc(C(=O)[O-])c(O)c1.[Na+] [Sodium 4-Aminosalicylate]
Resp: 0.74 fold

Req: Look up and state reported fold increase in IFN-β release for "C=C[C@@]1(C)CC(=O)[C@]2(O)[C@@]3(C)[C@@H](O)CCC(C)(C)[C@@H]3[C@H](O)[C@H](OC(C)=O)[C@@]2(C)O1"
Resp: 0.81 fold

Req: Look up and state reported fold increase in IFN-β release for "Cn1c(N2CCCCS2(=O)=O)nc(C(=O)NCc2ccc(F)cc2)c(O)c1=O"
Resp: 1.59 fold

Req: Look up and state reported fold increase in IFN-β release for O=C1CC[C@@]2(O)[C@H]3Cc4ccc(O)c5c4[C@@]2(CCN3CC2CC2)[C@H]1O5 [Naltrexone HCl]
Resp: 3.12 fold

Req: Look up and state reported fold increase in IFN-β release for COc1ccc(CNCc2cccc3ccccc23)cc1.Cl [ML133 HCl]
Resp: 0.59 fold

Req: Look up and state reported fold increase in IFN-β release for "CC(C)NCCCn1c(Sc2cc3c(cc2I)OCO3)nc2c(N)ncnc21"
Resp: 1.13 fold

Req: Look up and state reported fold increase in IFN-β release for "CS(=O)(=O)N1CCN(Cc2cc3nc(-c4cccc5[nH]ncc45)nc(N4CCOCC4)c3s2)CC1"
Resp: 2.13 fold

Req: Look up and state reported fold increase in IFN-β release for CCOC(=O)[C@H](CCc1ccccc1)N[C@@H](C)C(=O)N1C(=O)N(C)C[C@H]1C(=O)O [Imidapril HCl]
Resp: 3.20 fold

Req: Look up and state reported fold increase in IFN-β release for "CC(C)OC(=O)C1=CN(C(=O)c2ccc(F)c(F)c2)CC(C)(C)c2c1[nH]c1ccccc21"
Resp: 0.26 fold

Req: Look up and state reported fold increase in IFN-β release for "Br.COc1cc(Br)c(Nc2nc(-c3c(C)nc4ncccn34)cs2)c(Br)c1"
Resp: 0.27 fold

Req: Look up and state reported fold increase in IFN-β release for "c1ccc(CNc2nc(NCc3ccccc3)c3ccccc3n2)cc1"
Resp: 2.18 fold

Req: Look up and state reported fold increase in IFN-β release for "CN1CCN(c2ccc(OC(F)(F)F)c(Nc3ncc4c(n3)-c3c(c(C(N)=O)nn3CCO)CC4)c2)CC1"
Resp: 0.73 fold

Req: Look up and state reported fold increase in IFN-β release for "Cc1cc(Nc2cc(N3CCN(C)CC3)nc(Sc3ccc(NC(=O)C4CC4)cc3)n2)[nH]n1"
Resp: 0.91 fold

Req: Look up and state reported fold increase in IFN-β release for C[C@H](N[C@@H](CCc1ccccc1)C(=O)O)C(=O)N1CCC[C@H]1C(=O)O.O.O [Enalaprilat Dihydrate]
Resp: 2.71 fold

Req: Look up and state reported fold increase in IFN-β release for "O=C(Nc1cc(C(F)(F)F)ccc1N1CCCCC1)c1ccncc1"
Resp: 2.38 fold

Req: Look up and state reported fold increase in IFN-β release for C[C@]12CC[C@@H]3c4ccc(O)cc4C[C@@H](CCCCCCCCC[S+]([O-])CCCC(F)(F)C(F)(F)F)[C@H]3[C@@H]1CC[C@@H]2O (stereo partly shown)
Resp: 0.52 fold

Req: Look up and state reported fold increase in IFN-β release for "CC(C)[C@H](O)C(=O)N[C@@H](C)C(=O)N[C@@H]1C(=O)N(C)CCc2ccccc21"
Resp: 1.04 fold

Req: Look up and state reported fold increase in IFN-β release for CN1C(=O)C(Cc2c[nH]c3ccccc23)NC1=S (stereo not shown)
Resp: 1.60 fold

Req: Look up and state reported fold increase in IFN-β release for CC(=O)OCC(=O)NCCCOc1cccc(CN2CCCCC2)c1 [Roxatidine Acetate HCl]
Resp: 3.16 fold

Req: Look up and state reported fold increase in IFN-β release for CC(=O)O[C@]1(C(C)=O)CC[C@H]2[C@@H]3C=C(Cl)C4=CC(=O)[C@@H]5C[C@@H]5[C@]4(C)[C@H]3CC[C@@]21C [Cyproterone Acetate]
Resp: 1.24 fold

###

- Test system: STING activation (IFNβ release) in iBMDMs
- procedureSummary: IFNβ release ELISA after STING ligand (or LPS) stimulation, iBMDMs
- Type: cell-based, mouse
- statedConditions: iBMDMs; 3′3′-cGAMP 10 μg/ml, 16 hours; compound 10 μM
Counter-ions that a name gives are not always drawn.
parameter: fold increase in IFN-β release (fold)
Just the number in fold, nothing appended.

Req: Look up and state reported fold increase in IFN-β release for C[C@H](NCc1ccc(OCc2cccc(F)c2)cc1)C(N)=O [Safinamide Mesylate]
Resp: 5.18

Req: Look up and state reported fold increase in IFN-β release for "O=C(O)/C(S)=C/c1c[nH]c2ccc(F)cc12"
Resp: 1.92

Req: Look up and state reported fold increase in IFN-β release for "O=C(NCc1ccccc1)c1csc(Nc2ccncn2)n1"
Resp: 8.11

Req: Look up and state reported fold increase in IFN-β release for "COc1ccc2cc([C@H](C)C(=O)O)ccc2c1"
Resp: 1.46

Req: Look up and state reported fold increase in IFN-β release for "CC(C)(F)C[C@H](N[C@@H](c1ccc(-c2ccc(S(C)(=O)=O)cc2)cc1)C(F)(F)F)C(=O)NC1(C#N)CC1"
Resp: 0.90

Req: Look up and state reported fold increase in IFN-β release for "COc1ccc(-n2nc(C(N)=O)c3c2C(=O)N(c2ccc(N4CCCCC4=O)cc2)CC3)cc1"
Resp: 2.83

Req: Look up and state reported fold increase in IFN-β release for COc1ccc2cc(-c3nc(-c4ccc([S+](C)[O-])cc4)[nH]c3-c3ccncc3)ccc2c1 (centres unmarked)
Resp: 2.04

Req: Look up and state reported fold increase in IFN-β release for "CCn1c(-c2nonc2N)nc2c(C#CC(C)(C)O)ncc(OC[C@H]3CCCNC3)c21"
Resp: 1.12

Req: Look up and state reported fold increase in IFN-β release for "C=CCNC1=C2C[C@@H](C)C[C@H](OC)[C@H](O)[C@@H](C)/C=C(\C)[C@H](OC(N)=O)[C@@H](OC)/C=C\C=C(/C)C(=O)NC(=CC1=O)C2=O"
Resp: 1.53

Req: Look up and state reported fold increase in IFN-β release for CCC(COC(=O)c1cc(OC)c(OC)c(OC)c1)(c1ccccc1)N(C)C (centres unmarked)
Resp: 0.30

Req: Look up and state reported fold increase in IFN-β release for "O=C(NCc1cccc(O)c1)Nc1nc(-c2ccncc2)cs1"
Resp: 2.41

Req: Look up and state reported fold increase in IFN-β release for "CCNc1nc(Nc2cc(F)c(C(=O)N3CCOCC3)cc2OC)ncc1C(F)(F)F"
Resp: 2.41

Req: Look up and state reported fold increase in IFN-β release for "Cn1cnc2c(F)c(Nc3ccc(Br)cc3Cl)c(C(=O)NOCCO)cc21"
Resp: 0.50

Req: Look up and state reported fold increase in IFN-β release for "Oc1nc(-c2ccc(C(F)(F)F)cc2)nc2c1CSCC2"
Resp: 1.00

Req: Look up and state reported fold increase in IFN-β release for "C[C@H](NC(=O)[C@@H](O)c1cc(F)cc(F)c1)C(=O)N[C@@H]1C(=O)N(C)c2ccccc2-c2ccccc21"
Resp: 0.26

Req: Look up and state reported fold increase in IFN-β release for "Cc1cc2c(C(C)C)c(O)c(O)c(C=O)c2c(O)c1-c1c(C)cc2c(C(C)C)c(O)c(O)c(C=O)c2c1O"
Resp: 0.13

Req: Look up and state reported fold increase in IFN-β release for CC(C)CCN1c2nc(Nc3cc(F)c(O)c(F)c3)ncc2N(C)C(=O)C1C (centres unmarked)
Resp: 0.79
